A compilation of pIC50 values for Receptor-type tyrosine-protein phosphatase beta (Homo sapiens, UniProt P23467) from the published literature.
# reply with the number alone; pIC50 is -log10 of concentration in mol/L

| compound | pIC50 |
| --- | --- |
| COC(=O)C(CCCS(C)(=O)=O)(Cc1ccc(NS(=O)(=O)O)cc1)C(=O)OC | 6.38 |
| COC(=O)C(CCCSc1nnnn1-c1ccccc1)(Cc1ccc(NS(=O)(=O)O)cc1)C(=O)OC | 6.70 |
| Cc1noc(C(CCCc2ccccc2)(Cc2ccc(NS(=O)(=O)O)cc2)c2nc(C)no2)n1 | 7.15 |
| O=P(O)(O)C(F)(F)c1ccc(COc2cccc(OCc3ccc(C(F)(F)P(=O)(O)O)cc3)c2)cc1 | 4.11 |
| O=P(O)(O)C(F)(F)c1ccc(COc2ccc(OCc3ccc(C(F)(F)P(=O)(O)O)cc3)cc2)cc1 | 4.82 |

Lab note: need pIC50 for COC(=O)C(CCCS(=O)(=O)c1nnnn1-c1ccccc1)(Cc1ccc(NS(=O)(=O)O)cc1)C(=O)OC on Receptor-type tyrosine-protein phosphatase beta (Homo sapiens, UniProt P23467), anyone have it? 7.10

Another compound: CCOC(=O)C(Cc1ccc(NS(=O)(=O)O)cc1)(NC(=O)OCc1ccccc1)C(=O)OC (stereo not given) 6.40

Another compound: O=P(O)(O)C(F)(F)c1ccc(CCCCc2ccc(C(F)(F)P(=O)(O)O)cc2)cc1 3.47

Another compound: CNC(=O)[C@@H]1Cc2ccc(NS(=O)(=O)O)cc2CN1C(=O)CCc1cccc(NS(=O)(=O)O)c1 4.68
